Tested on: MDA-MB-231 breast
Experiment: NCI-60 one-dose screen, 48 h
Details: 10 µM unless noted
About 83,000 compounds went through this panel and 20% of them were active in at least one assay; those are over-represented in the sample as a whole. Calls of active or inactive are those of the source. How the source made its calls: active means growth percent below 10; inactive means the rest.
// allowed return values: Y for active, N for inactive

{"molecule": "CC1(C)CC[C@]2(C(N)=O)CC[C@]3(C)C(=CC[C@@H]4[C@@]5(C)C/C(=C/c6cccnc6)C(=O)C(C)(C)[C@@H]5CC[C@]43C)[C@@H]2C1", "cat": "Y"}

Qu. Recorded test call requested for COc1cccc(-c2[nH]c(=S)ncc2C(=O)c2ccccc2)c1
Ans. N

Qu. Recorded test call requested for CCn1cc(-c2ccnc(NCCNS(=O)(=O)c3cccc4ccccc34)c2)c(-c2cccc(O)c2)n1
Ans. N

Qu. Recorded test call requested for Cn1cc(-c2noc(-c3cn(C)c4ncc(F)cc34)n2)c2cc(Cl)ccc21
Ans. N

Qu. Recorded test call requested for O=C1NC(=O)C(Cc2ccccc2)(Cc2ccccc2)N1
Ans. N

Qu. Recorded test call requested for CSc1nc(=S)c2nc(SC)n(-c3ccccc3)c2[nH]1
Ans. N

Qu. Recorded test call requested for Cc1ncc(C(=O)Nc2ccc(CN3CCN(C)CC3)c(C(F)(F)F)c2)cc1C#Cc1c(N)ncc2ccc(C#N)cc12
Ans. Y

Qu. Recorded test call requested for CC[C@]12C=CCN3CC[C@@]4(c5ccc(OC)cc5N(C)[C@H]4[C@@](O)(C(=O)OC)[C@@H]1OC(=O)CCC(=O)N[C@H](Cc1c[nH]c4ccccc14)C(=O)OC)[C@@H]32
Ans. Y

Qu. Recorded test call requested for NC(=O)c1c(NC(=O)COC(=O)Cc2ccccc2F)sc2c1CCC2
Ans. N

Qu. Recorded test call requested for COC(=O)[C@]12CCC(C)(C)C[C@H]1C1=CC[C@@H]3[C@@]4(C)C/C(=C/c5cccnc5)C(=O)C(C)(C)[C@@H]4CC[C@@]3(C)[C@]1(C)CC2
Ans. Y

----------
Test system: MALME-3M melanoma
Assay: NCI-60 one-dose screen, 48 h
Settings: 10 µM unless noted
The panel holds about 83,000 compounds, 20% with a hit somewhere; the sample as a whole holds those more often. The source made the active and inactive calls. The calls were made as follows: active = growth percent below 10; inactive = the rest.
// allowed return values: 1.0 = active, 0.0 = inactive

{"smiles repr": "C[C@@H](NC(=O)[C@@H](CC(=O)N1CCC(N2CCCCC2)CC1)N1C(=O)[C@@H](N2C(=O)OC[C@@H]2c2ccccc2)[C@H]1/C=C/c1cccc(Cl)c1)c1ccccc1", "system": "MALME-3M melanoma", "cat": 1.0}

Qu. Recorded test call requested for CC(C)=CCC[C@](C)(O)[C@H]1CC[C@]2(C)[C@@H]1CC[C@@H]1[C@@]3(C)CC/C(=N/O)C(C)(C)[C@@H]3CC[C@]12C
Ans. 1.0

Qu. Recorded test call requested for COc1ccc(C(=O)CCC(=O)O)cc1
Ans. 0.0

Qu. Recorded test call requested for CCN(CC)c1cc(N)c(Cc2c(N)cc(N(CC)CC)cc2Cl)c(Cl)c1
Ans. 0.0

Qu. Recorded test call requested for Nc1cccc2c1C(=O)c1cccc(NC(=O)c3ccccc3)c1C2=O
Ans. 1.0

Qu. Recorded test call requested for COc1ccc(NCc2cn(-c3ccc(C(=O)O)cc3)nc2-c2ccc(C(=O)O)cc2)cc1C(F)(F)F
Ans. 0.0

Qu. Recorded test call requested for O=[N+]([O-])c1cccc(/C=C/c2ccc3ccccc3n2)c1
Ans. 0.0

Qu. Recorded test call requested for O=C(O)c1cn(C2CC2)c2cc(N3CCN(Cc4c(O)ccc5ccccc45)CC3)c(F)cc2c1=O
Ans. 0.0

Qu. Recorded test call requested for COc1ccc2c(c1)c(-c1noc(-c3cn(C)c4ncc(F)cc34)n1)cn2C
Ans. 0.0
